Please provide measured self-cleavage for the entries that follow.
B1: CPEB3 Ribozyme (parent)
chain: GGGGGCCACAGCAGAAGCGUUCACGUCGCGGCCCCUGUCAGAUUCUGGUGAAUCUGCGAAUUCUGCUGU

Variants of: B1
Assay Notes: self-cleavage, relative activity (ratio to wild type); higher = more cleavage; co-transcriptional
One number for each entry.

Known self-cleavage results, listed for orientation:
G19C U62A	0.107
G5U C33G	0.0433
G11C A13C	0.175

Now consider the entry below.
Need self-cleavage, item C29A C35A
0.157
